# Tested on: M14 melanoma
# test: NCI tumour cell line growth inhibition, 48 h

compound	measurement_unit	qualifier_operator	TGI
C/C(=N\Nc1nc2ccccc2s1)c1ccncn1	µM	=	14.4
CCN(CC)C(=S)SC(C(=O)Nc1nnc(-c2ccc(Cl)cc2)o1)c1ccccc1 (stereo not given)	µM	=	27.6
C/C(=N/NC(=S)Nc1ccccc1)c1nc2ccc(Cl)cc2[nH]1	µM	=	0.26
O=C1c2cccc3cccc(c23)C(=O)N1CCCCCN1CCN(CCN=c2cc3n(-c4ccc(Cl)cc4)c4ccccc4nc-3cc2Nc2ccc(Cl)cc2)CC1	µM	=	16.5
CC1CCC2C(C)C(=O)OC2C2(C)C(=O)C=CC12 (stereo not given)	µM	>	10

====

# Tested on: HCT-15 colon
# test: NCI tumour cell line growth inhibition, 48 h; in the data active = GI50 below about 0.43 µM; inactive = the rest
Labels: class 1 = active, class 0 = inactive

compound	class_assignment
O=C(Nc1n[nH]c2cc(-c3cc(F)ccc3F)ccc12)C1CC1	class 0
CC(C)C[C@@H](N)[C@@H](O)C(=O)N[C@H](C(=O)N[C@H](C(=O)N[C@@H](CC(=O)O)C(=O)O)C(C)C)C(C)C	class 0
CC(C)(C)C[C@H]1N[C@@H](C(=O)NC2CCC(O)CC2)[C@H](c2cccc(Cl)c2F)[C@@]12C(=O)Nc1cc(Cl)ccc12 (some centres not stated)	class 0
COc1ccc(-n2cc(-c3ccc(OC)c(OC)c3)[nH]c2=O)cc1	class 0
COc1ccc(-c2ccc(OC)c(OC)c2OC)cc1	class 0
COc1cc2c(cc1C)NC(=O)/C2=C/c1ccnc2ccccc12	class 0
O=C1C(=O)c2c(nc3ccc(C(F)(F)F)cn23)-c2ccccc21	class 1

====

# Test system: PC-3 prostate
# test: NCI tumour cell line growth inhibition, 48 h
measurement_type: TGI (µM)

compound	measurement_type	measurement_unit	qualifier_operator	readout_value
COC(=O)C1=C(CCCCO[Si](C)(C)C(C)(C)C)NC(=O)N2[C@H](CCOCc3ccccc3)CC[C@@H]12	TGI	µM	>	100
COC1=CC(=O)O/C1=C(\OC)C1OC1c1ccccc1 (stereo not given)	TGI	µM	>	100
O=C1c2cc3c(cc2-c2c1c1cc(F)c(F)cc1c(=O)n2CCCn1ccnc1)OCO3	TGI	µM	>	100
NC(=O)[C@H](Cc1ccc(O)cc1)Nc1c(O)c2c(c(O)c1Cl)C(=O)C=CC2=O	TGI	µM	=	5.85
COc1c2ccoc2nc2c(OC)c(OCC(O)C(C)(C)O)ccc12 (stereo not given)	TGI	µM	>	100
Cn1c(COC(=O)NCCc2ccccn2)nc2c(N3CCOCC3)nc(Cl)nc21	TGI	µM	=	3.56
COc1ccc2c(c1)C(=O)c1c-2c(OCCCN(C)C)nc2cc(Br)ccc12	TGI	µM	=	7.78
NC(N)=N/N=C\c1ccc(OCc2ccccc2)cc1	TGI	µM	=	10.6
COc1ccc(CCNC(=O)Cc2ccccc2CO)cc1OC	TGI	µM	>	100
CCOC(=O)NC(=S)N(CC(=O)c1cc(OC)c(OC)c(OC)c1)c1ccc(Cl)cc1	TGI	µM	>	100

====

# Test system: SW-620 colon
# test: NCI tumour cell line growth inhibition, 48 h
Recorded TGI for the following molecules
measurement_type: TGI

molecule	measurement_type	readout_value
CCCCCCCC/C=C/CCCCCCCC1=NC(C)(C)CN1C(C)(C)CO	TGI	3.11 µM
O=C1c2cc3c(cc2-c2c1c1cc(F)c(F)cc1c(=O)n2CCCn1ccnc1)OCO3	TGI	> 100 µM
COP(=O)(OC)OCN(C)CC/C=C(\C)CC/C=C(\C)CCC=C(C)C	TGI	30.4 µM
C1=CC(=P(c2ccccc2)(c2ccccc2)c2ccccc2)C=C1	TGI	56 µM
COc1cc2c(cc1O)C1Cc3ccc(OC)c(O)c3C[N+]1(C)CC2 (centres undefined)	TGI	> 100 µM
COc1ccc(-c2ccc(OC)c(OC)c2OC)cc1	TGI	> 100 µM
COc1cc2c(cc1C)NC(=O)/C2=C/c1ccnc2ccccc12	TGI	> 50 µM
N#CCCC(C=O)(CCC#N)CCC#N	TGI	> 100 µM
CCCCCC[C@H]([C@H](C)O)n1cnc2c(N)ncnc21	TGI	> 100 µM
C[C@@H]1C[C@@H]([C@H](O)CC2CC(=O)NC(=O)C2)C(=O)[C@@H](C)C1	TGI	1.23 µM
O=[N+]([O-])c1ccc(-n2nc3ccc4nonc4c3n2)cc1	TGI	> 100 µM
C=C(NC(=O)C(=C)NC(=O)c1ccc2c(n1)-c1coc(n1)C(=C)NC(=O)C(=C)NC(=O)c1nc(oc1C)C(=C)NC(=O)C(C(C)(C)O)NC(=O)C(=C)NC(=O)c1coc(n1)/C(=C/C)NC(=O)[C@H]([C@@H](C)O)NC(=O)c1csc-2n1)C(N)=O (some centres undefined)	TGI	> 87.5 µM
CC(=O)n1[nH]c(=O)n(-c2ccc(Cl)cc2)c1=O	TGI	> 100 µM
COc1ccc(N2C(=O)C3c4[nH]c5c(C)cccc5c4C4CCC(C(C)C)CC4C3C2=O)cc1 (centres undefined)	TGI	45.7 µM
CC(C)(C)C#COC(=O)c1ccccc1	TGI	> 100 µM
CC(C)C[C@@H](N)[C@@H](O)C(=O)N[C@H](C(=O)N[C@H](C(=O)N[C@@H](CC(=O)O)C(=O)O)C(C)C)C(C)C	TGI	> 20 µM
CN(C)CCC(=O)Nc1ccc(-n2cc(-c3cccc(NC(=S)Nc4cccc(-c5cn(-c6ccc(NC(=O)CCN(C)C)cc6)nn5)c4)c3)nn2)cc1	TGI	> 100 µM
Cc1cc2c(c(C(=O)O)c1C)-c1cccc(Cl)c1C2=O	TGI	> 100 µM
COc1cc(/C=N/NC(=O)c2cnn3c2NC(c2ccccc2)C3)ccc1OC1CCCC1 (centres undefined)	TGI	2.38 µM

====

# System: TK-10 renal
# test: NCI tumour cell line growth inhibition, 48 h; in the data active = GI50 below about 0.43 µM; inactive = the rest
Labels: true (1) for active, false (0) for inactive

molecule	test_system	class_assignment
C/C(=N/NC(=S)Nc1ccccc1)c1nc2ccc(Cl)cc2[nH]1	TK-10 renal	false (0)
CC1(C)CC(C)(C)c2cc(NC(=S)Nc3ccc([N+](=O)[O-])cc3)ccc2S1	TK-10 renal	false (0)
CN1CCN(C2=NC(=O)/C(=C\c3ccc(N(C)C)cc3)S2)CC1	TK-10 renal	false (0)
O=c1[nH]c(C2CCCN2)nc2c1oc1ccc(Cl)cc12 (configuration not stated)	TK-10 renal	false (0)
CCC[CH2][Sn-]([CH2]CCC)([CH2]CCC)[O]C(=O)C(C)C	TK-10 renal	true (1)
COc1ccc2[nH]c(C(=O)N3CCN(C(=O)OCc4ccc5c(Cl)cc(Cl)c(O)c5n4)CC3)cc2c1	TK-10 renal	false (0)
CN(C)CCC(=O)Nc1ccc(-n2cc(-c3cccc(NC(=S)Nc4cccc(-c5cn(-c6ccc(NC(=O)CCN(C)C)cc6)nn5)c4)c3)nn2)cc1	TK-10 renal	false (0)
O=C1c2cccc3cccc(c23)C(=O)N1CCCCCN1CCN(CCN=c2cc3n(-c4ccc(Cl)cc4)c4ccccc4nc-3cc2Nc2ccc(Cl)cc2)CC1	TK-10 renal	false (0)
COc1cc2c(cc1C)NC(=O)/C2=C/c1ccnc2ccccc12	TK-10 renal	false (0)
O=S(=O)(NC1=NCCN1C(=S)SN1CCn2c1nsc2=S)c1ccc(Cl)cc1	TK-10 renal	false (0)
[N-]=[N+]=CC(=O)CCC(N)C(=O)O (configuration not stated)	TK-10 renal	false (0)
CC(C)C[C@@H](N)[C@@H](O)C(=O)N[C@H](C(=O)N[C@H](C(=O)N[C@@H](CC(=O)O)C(=O)O)C(C)C)C(C)C	TK-10 renal	false (0)
CC(C)(C)C[C@H]1N[C@@H](C(=O)NC2CCC(O)CC2)[C@H](c2cccc(Cl)c2F)[C@@]12C(=O)Nc1cc(Cl)ccc12 (some centres not stated)	TK-10 renal	false (0)
C[C@@H]1C[C@@H]([C@H](O)CC2CC(=O)NC(=O)C2)C(=O)[C@@H](C)C1	TK-10 renal	true (1)
COc1ccc(-c2ccc(OC)c(OC)c2OC)cc1	TK-10 renal	false (0)
O=C(Nc1n[nH]c2cc(-c3cc(F)ccc3F)ccc12)C1CC1	TK-10 renal	false (0)
COc1cc2c(cc1OCCNC(=O)/C=C1\C[C@H]3C=Nc4cc(OCc5ccccc5)c(OC)cc4C(=O)N3C1)N=C[C@@H]1CCCN1C2=O	TK-10 renal	false (0)

====

# Test system: IGROV1 ovarian
# test: NCI tumour cell line growth inhibition, 48 h; in the data active means GI50 below about 0.43 µM; inactive means the rest
Labels: active, inactive

molecule	class_assignment
Nc1cc2c3c(cccc3c1)C(=O)N(CCN1CCCC1)C2=O	inactive
CC(=O)[CH-]C(C)=O.CC(=O)[CH-]C(C)=O.[O-]c1ccccc1.[O-]c1ccccc1.[Ti+4]	inactive
O=C1NC(=NCCc2ccc(Cl)cc2)S/C1=C\c1ccc2ncccc2c1	inactive
CCOC(=O)NC(=S)N(CC(=O)c1cc(OC)c(OC)c(OC)c1)c1ccc(Cl)cc1	inactive
C[C@@H]1C[C@@H]([C@H](O)CC2CC(=O)NC(=O)C2)C(=O)[C@@H](C)C1	active
COc1cc(C2CC(c3ccc(Nc4nc(NCCO)nc(NCCO)n4)cc3)=NN2c2cc(Cl)cc(Cl)c2)cc(OC)c1OC (stereo unspecified)	inactive
O=C(Nc1sc2c(c1C(=O)O)CCCC2)c1ccco1	inactive
C[C@@]1(F)[C@H](O)[C@@H](CO)O[C@H]1n1ccc(=O)[nH]c1=O	inactive
Cn1c(I)c(C#C[Si](C)(C)C)c(=O)n(C(=O)c2ccccc2)c1=O	inactive
O=C1C(=O)c2c(nc3ccc(C(F)(F)F)cn23)-c2ccccc21	active
[N-]=[N+]=CC(=O)CCC(N)C(=O)O (stereo unspecified)	inactive
